- Experimental target: BRK (Homo sapiens, UniProt Q13882)
- Sequence (Q13882 whole entry): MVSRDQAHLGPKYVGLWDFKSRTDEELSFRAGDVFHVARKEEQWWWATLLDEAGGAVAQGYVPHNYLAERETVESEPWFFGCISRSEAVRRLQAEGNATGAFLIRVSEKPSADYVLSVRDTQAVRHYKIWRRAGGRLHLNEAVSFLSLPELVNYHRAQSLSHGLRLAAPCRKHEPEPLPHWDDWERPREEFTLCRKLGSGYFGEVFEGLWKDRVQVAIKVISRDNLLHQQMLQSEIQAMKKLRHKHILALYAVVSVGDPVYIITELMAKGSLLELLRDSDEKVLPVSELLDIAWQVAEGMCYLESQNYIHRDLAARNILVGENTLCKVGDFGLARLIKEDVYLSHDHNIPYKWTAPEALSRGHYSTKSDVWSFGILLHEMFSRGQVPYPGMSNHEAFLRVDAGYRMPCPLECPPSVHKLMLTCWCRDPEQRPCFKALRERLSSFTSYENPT
- Measurement notes: BRK biochemical inhibitory assay
- Condition notes: read-out: Biochemical assay IC50; ADP-Glo (Table 3)
Property measured: IC50 (nM)

- Smiles: "Oc1cccc(Nc2ccnc3[nH]c4ccccc4c23)c1"
  Property measured: "IC50"
  Measured result: 25.7

====

- Experimental target: BRK (Homo sapiens)
- Measurement notes: BRK biochemical inhibitory assay
- Condition notes: read-out: BRK IC50; enzymatic inhibition
pIC50: −log10 of the molar value.
Property measured: pIC50

- Smiles: "Oc1cccc(Nc2ccnc3[nH]c4ccccc4c23)c1"
  Experimental target: "BRK (Homo sapiens)"
  Property measured: "pIC50"
  Measured result: 7.60
